# Protocol notes: Oral bioavailability in Wistar rat at 10 mg/kg, po
# Format: ADME, organism-based
# Conditions: in vivo

{"Smiles structure": "C[C@H](O)c1ccc(-c2ccc(N3C[C@H](Cn4ccnn4)OC3=O)cc2F)cn1", "Units label": "%", "bioavailability": 100}
{"Smiles structure": "Cc1cn(CC(=O)c2ccc(-c3ccc(N4C[C@H](Cn5ccnn5)OC4=O)cc3F)cn2)c(C)n1", "Units label": "%", "bioavailability": 14}
{"Smiles structure": "Cc1cnc(C)n1CC(=O)c1ccc(-c2ccc(N3C[C@H](Cn4ccnn4)OC3=O)cc2F)cn1", "Units label": "%", "bioavailability": 73}
{"Smiles structure": "Cc1nccn1CC(=O)c1ccc(-c2ccc(N3C[C@H](Cn4ccnn4)OC3=O)cc2F)cn1", "Units label": "%", "bioavailability": 100}

Reference for the values: ChEMBL document CHEMBL1148787
